experiment: qHTS assay to identify small molecule antagonists of the estrogen related receptor signaling pathway with the pleiotropic PPARgamma coactivator (PGC) from Tox21 10K library (AID 1224841); details: PGC/ERR reporter cell line, ONE-Glo luciferase, 18 h; series mostly up to 92.4 µM; also: actives are mostly falling curves and most rising ones were filed inactive; nearly all actives have a fitted effect of over 50% in size
Records with an inconclusive call do not appear. The source made the active and inactive calls. No rule for the calls is given here.
MEASUREMENT NAME: outcome

# annotated cases, reported outcome shown
CC1=C(C)S(=O)(=O)CCS1(=O)=O :: inactive
CCC(O)OC(O)CC (stereo not given) :: inactive
CCCCC(CC)COC(=O)C(C#N)=C(c1ccccc1)c1ccccc1 (stereo not given) :: inactive
CC[C@H](C)C(=O)O[C@H]1C[C@@H](C)C=C2C=C[C@H](C)[C@H](CC[C@@H]3C[C@@H](O)CC(=O)O3)[C@H]21 :: inactive
O=c1[nH]nnc2ccccc12 :: inactive
CN(C)CCOCCN(C)C :: inactive

q: State its outcome for this compound: O=C(CC(C(=O)OC1CCCCC1)S(=O)(=O)O)OC1CCCCC1 (stereo not given)
a: inactive

q: State its outcome for this compound: Nc1cc([N+](=O)[O-])ccc1O
a: inactive

q: State its outcome for this compound: COc1ccc(Nc2ccccc2)c(C)c1
a: inactive

q: State its outcome for this compound: OC[C@H]1O[C@@](CO)(O[C@H]2O[C@H](CO)[C@@H](O)[C@H](O)[C@H]2O)[C@@H](O)[C@@H]1O
a: inactive

q: State its outcome for this compound: CN(C)CCCN
a: inactive

----------
assay: A CellTox Green Cytotoxicity Assay to monitor cytotoxicity in HepG2 cells - 32 hour (AID 1224883); conditions: CellTox Green fluorescence; series mostly up to 76.8 µM; also: nearly all actives have a fitted effect of over 50% in size
Inconclusive results are not listed. Active and inactive are the calls of the source. The call rests on the fitted dose curve; in most records, active means well fitted activation curve with a large enough effect in the repeat runs; inconclusive means weak or mixed curves; inactive means flat fitted curve, though single readings scatter.
MEASUREMENT NAME: cytotoxicity increase

# annotated cases, reported cytotoxicity increase shown
CC1CCC2CC1C2(C)C (stereo unspecified) :: inactive
C[C@H]1C[C@H]2[C@@H]3CCC4=CC(=O)C=C[C@]4(C)[C@@]3(F)[C@@H](O)C[C@]2(C)[C@@]1(O)C(=O)CO :: inactive
Cc1ccc2oc(=O)ccc2c1 :: inactive
O=c1[nH]c(=O)n([C@H]2C[C@H](O)[C@@H](CO)O2)cc1Br :: inactive
CC(=O)CC(=O)Nc1ccccc1C :: inactive

q: State its cytotoxicity increase for this compound: CC(C)(N)CO
a: inactive

q: State its cytotoxicity increase for this compound: Fc1ccc(Br)cc1
a: inactive

q: State its cytotoxicity increase for this compound: CCCCC(CC)COC(=O)C(C#N)=C(c1ccccc1)c1ccccc1 (stereo unspecified)
a: inactive

q: State its cytotoxicity increase for this compound: C[C@H]1C[C@@H]2[C@H]([C@@H](O)C[C@@]3(C)[C@H]2CC[C@]3(O)C(=O)CO)[C@@]2(C)C=CC(=O)C=C12
a: inactive

q: State its cytotoxicity increase for this compound: COc1ccc2cc([C@H](C)C(=O)O)ccc2c1
a: inactive

q: State its cytotoxicity increase for this compound: CC(C)(C)[C@@H](O)[C@@H](Cc1ccc(Cl)cc1)n1cncn1
a: inactive

q: State its cytotoxicity increase for this compound: Cc1cnc(C(=O)NCCc2ccc(S(=O)(=O)NC(=O)NC3CCCCC3)cc2)cn1
a: inactive

q: State its cytotoxicity increase for this compound: CN(C)CCCN
a: inactive

q: State its cytotoxicity increase for this compound: O=C(Oc1ccccc1)c1ccccc1
a: inactive

q: State its cytotoxicity increase for this compound: Cc1ccc(N(C)C)cc1
a: inactive

q: State its cytotoxicity increase for this compound: CN(C)CCC(c1ccc(Cl)cc1)c1ccccn1 (stereo unspecified)
a: inactive

q: State its cytotoxicity increase for this compound: CCCCCCCCCCCCCCCO
a: inactive

q: State its cytotoxicity increase for this compound: CCCCCCCCC/C=C/CC1CC(=O)OC1=O (stereo unspecified)
a: inactive

q: State its cytotoxicity increase for this compound: c1c[nH]cn1
a: inactive

q: State its cytotoxicity increase for this compound: CCCCCOC(C)=O
a: inactive

----------
test: qHTS assay for small molecule agonists of the antioxidant response element (ARE) signaling pathway - cell viability counter screen (AID 743203); conditions: ARE-bla HepG2 viability, CellTiter-Glo luminescence, 16 h; series mostly up to 73.3 µM; also: nearly all actives have a fitted effect of over 55% in size
Results filed as inconclusive are left out. Calls of active or inactive are those of the source. Calls come from the whole dose curve.
MEASUREMENT NAME: viability change, negative = cytotoxic

Cc1ccc(S(N)(=O)=O)cc1 :: inactive
CN(C)CCCN :: inactive
c1ccc(OCCOc2ccccc2)cc1 :: inactive
CCCCCCCCCCCCCCO :: inactive
CCCCCCCC(=O)OC :: inactive

Next:
q: State its viability change, negative = cytotoxic for this compound: O=C(O)c1ccccc1C(c1ccc(O)cc1)c1ccc(O)cc1
a: inactive

----------
target: Glucocorticoid receptor (Homo sapiens) (UniProt P04150); experiment: qHTS assay to identify small molecule agonists of the glucocorticoid receptor (GR) signaling pathway (AID 720691); settings: GR-bla HeLa, beta-lactamase reporter ratio, 18 h
Sequence (P04150 whole entry, looked up): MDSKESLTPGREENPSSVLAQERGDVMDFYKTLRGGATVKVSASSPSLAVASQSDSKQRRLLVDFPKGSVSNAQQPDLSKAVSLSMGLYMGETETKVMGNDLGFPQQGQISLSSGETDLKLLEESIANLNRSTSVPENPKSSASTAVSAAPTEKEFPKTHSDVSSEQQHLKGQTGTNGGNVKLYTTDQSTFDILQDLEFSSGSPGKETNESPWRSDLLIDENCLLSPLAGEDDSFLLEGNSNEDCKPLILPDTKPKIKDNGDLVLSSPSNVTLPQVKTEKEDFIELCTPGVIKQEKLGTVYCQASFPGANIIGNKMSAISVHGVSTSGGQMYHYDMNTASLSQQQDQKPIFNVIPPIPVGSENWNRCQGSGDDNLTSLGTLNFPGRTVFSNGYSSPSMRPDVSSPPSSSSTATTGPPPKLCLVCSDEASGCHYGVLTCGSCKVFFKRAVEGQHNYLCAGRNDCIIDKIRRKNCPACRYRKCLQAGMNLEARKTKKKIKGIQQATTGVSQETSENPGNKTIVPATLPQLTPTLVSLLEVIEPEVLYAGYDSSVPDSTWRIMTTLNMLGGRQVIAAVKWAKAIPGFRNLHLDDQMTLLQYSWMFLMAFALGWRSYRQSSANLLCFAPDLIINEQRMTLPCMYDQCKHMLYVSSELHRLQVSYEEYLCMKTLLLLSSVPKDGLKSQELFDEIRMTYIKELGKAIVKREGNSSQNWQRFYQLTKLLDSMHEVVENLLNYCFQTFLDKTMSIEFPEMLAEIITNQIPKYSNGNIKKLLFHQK
Inconclusive results are not listed. The source made the active and inactive calls. Calls come from the whole dose curve; as a rule, active = well fitted activation curve with a large enough effect in the signal ratio in the repeat runs (not every such curve was filed as active); inconclusive = weak or mixed curves, or effect the other way; inactive = no such curve, though single readings can be large or run the other way; the % refers to the signal ratio.
MEASUREMENT NAME: outcome

# annotated cases, reported outcome shown
CCN(CC)CCCC(C)Nc1ccnc2cc(Cl)ccc12 (stereo not given) :: inactive
CCCCCC1=CCCC1=O :: inactive
O=C(O)CCCC[C@@H]1SC[C@@H]2NC(=O)N[C@@H]21 :: inactive
Cc1cccc(O)c1 :: inactive

q: State its outcome for this compound: CCCCC(CC)COC(=O)C(C#N)=C(c1ccccc1)c1ccccc1 (stereo not given)
a: inactive

q: State its outcome for this compound: O=C(OCCOCCOC(=O)c1ccccc1)c1ccccc1
a: inactive

q: State its outcome for this compound: CC(C)(C)[C@@H](O)[C@@H](Cc1ccc(Cl)cc1)n1cncn1
a: inactive

q: State its outcome for this compound: C#CCN(C)Cc1ccccc1
a: inactive

----------
target: Cytochrome P450 2C19 (Homo sapiens) (UniProt P33261); test: Cytochrome P450 Family 2 Subfamily C Member 19 (CYP2C19) small molecule antagonists: luciferase reporter qHTS assay (AID 1671197); conditions: P450-Glo CYP2C19 enzyme, luciferin luminescence, 1 h; series mostly up to 115 µM; also: nearly all actives have a fitted effect of over 65% in size
Sequence (P33261 whole entry, looked up): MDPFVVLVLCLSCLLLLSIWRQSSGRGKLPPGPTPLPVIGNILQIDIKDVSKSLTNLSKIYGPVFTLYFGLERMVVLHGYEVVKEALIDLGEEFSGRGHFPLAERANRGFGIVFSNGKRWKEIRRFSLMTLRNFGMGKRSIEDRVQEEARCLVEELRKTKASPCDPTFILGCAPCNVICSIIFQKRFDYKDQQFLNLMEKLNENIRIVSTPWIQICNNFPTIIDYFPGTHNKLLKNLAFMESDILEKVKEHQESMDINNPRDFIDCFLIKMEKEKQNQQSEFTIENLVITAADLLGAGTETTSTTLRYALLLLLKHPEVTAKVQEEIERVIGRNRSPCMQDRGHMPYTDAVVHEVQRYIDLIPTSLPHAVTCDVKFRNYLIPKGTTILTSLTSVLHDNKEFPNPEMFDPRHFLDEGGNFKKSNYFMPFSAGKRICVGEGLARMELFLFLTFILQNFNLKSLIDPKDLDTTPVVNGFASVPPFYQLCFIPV
Records with an inconclusive call do not appear. Activity calls are given as the source filed them. Calls follow the shape of the dose curve; as a rule, active = well fitted inhibition curve with a large enough effect in the repeat runs; inconclusive = weak or mixed curves; inactive = no such curve, though single readings can be large or run the other way.
Hi there, use one of these labels in your reply, thanks! active, inactive

Worked cases, answers included:
Cc1cccnc1 :: inactive
CCCCCCOCCO :: inactive
CC(=O)CC(=O)Nc1ccccc1C :: inactive
CC(=O)CC(=O)Nc1ccccc1 :: active
c1ccc2scnc2c1 :: inactive

q: What did the test return for CCCC(C)=O ?
a: inactive

q: What did the test return for CC(C)c1ccc(S(=O)(=O)O)cc1 ?
a: inactive

q: What did the test return for CCCCC(CC)CO (stereo unspecified) ?
a: inactive

q: What did the test return for O=c1[nH]c(=O)n([C@H]2C[C@H](O)[C@@H](CO)O2)cc1Br ?
a: inactive

q: What did the test return for CC(=O)Nc1cccc(O)c1 ?
a: inactive

----------
experiment: Caspase-3/7 induction in HepG2 cells by small molecules, qHTS cell viability counter screen (AID 1346981); settings: CellTiter-Fluor fluorescence, 17 h; series mostly up to 92.4 µM; also: nearly all actives have a fitted effect of over 30% in size
Inconclusive results are not listed. Calls of active or inactive are those of the source. Calls come from the whole dose curve; as a rule, active = well fitted cell-killing curve with a large enough effect in the repeat runs; inconclusive = weak or mixed curves, or effect the other way; inactive = flat fitted curve, though single readings scatter.
Hi there, use one of these labels in your reply, thanks! active, inactive

C[Si](O[Si](C)(C)C)O[Si](C)(C)C :: inactive

q: What did the test return for CC(=O)Nc1cccc(O)c1 ?
a: inactive

q: What did the test return for CCCCCCOCCO ?
a: inactive

q: What did the test return for CC1=CCC2CC1C2(C)C (stereo unspecified) ?
a: inactive

q: What did the test return for CSCCC=O ?
a: inactive

q: What did the test return for OCC(CO)(CBr)CBr ?
a: inactive

q: What did the test return for CCCCCC/C(C=O)=C\c1ccccc1 ?
a: inactive

q: What did the test return for O=C(O)c1ccc2c(c1)C(=O)OC2=O ?
a: inactive

----------
molecular target: Estrogen receptor (Homo sapiens); assay: qHTS assay to identify small molecule antagonists of the estrogen receptor alpha (ER-alpha) signaling pathway using the BG1 cell line in the presence of 0.1 nM 17-beta-estradiol (AID 1259244); conditions: VM7Luc4E2 (BG1) ERE-luciferase, antagonist mode, 0.1 nM E2, 22 h; series mostly up to 92.4 µM; also: nearly all actives have a fitted effect of over 50% in size
Results filed as inconclusive are left out. Active and inactive are the calls of the source. Calls follow the shape of the dose curve; as a rule, active = well fitted inhibition curve with a large enough effect in the repeat runs; inconclusive = weak or mixed curves; inactive = no such curve, though single readings can be large or run the other way.
Hi there, use one of these labels in your reply, thanks! active, inactive

C#C[C@]1(O)CC[C@H]2[C@@H]3CCC4=CC(=O)CC[C@@H]4[C@H]3CC[C@@]21C :: inactive
O=c1[nH]c(=O)n([C@H]2C[C@H](O)[C@@H](CO)O2)cc1Br :: inactive
COc1ccc(Nc2ccccc2)c(C)c1 :: inactive
c1c[nH]cn1 :: inactive
CC(c1cc2ccccc2s1)N(O)C(N)=O (stereo not drawn) :: inactive

q: What did the test return for OC[C@H]1O[C@@](CO)(O[C@H]2O[C@H](CO)[C@@H](O)[C@H](O)[C@H]2O)[C@@H](O)[C@@H]1O ?
a: inactive

q: What did the test return for Cc1cc(C)c(C)cc1C ?
a: inactive

q: What did the test return for FC(F)(F)c1ccc(Cl)c(Cl)c1 ?
a: inactive

Entry source: PubChem BioAssay (Tox21)
